Listed compounds paired with reported inhibition at 500 µM
Target: human recombinant NAPRT (Homo sapiens, UniProt Q6XQN6)
Sequence (Q6XQN6 whole entry): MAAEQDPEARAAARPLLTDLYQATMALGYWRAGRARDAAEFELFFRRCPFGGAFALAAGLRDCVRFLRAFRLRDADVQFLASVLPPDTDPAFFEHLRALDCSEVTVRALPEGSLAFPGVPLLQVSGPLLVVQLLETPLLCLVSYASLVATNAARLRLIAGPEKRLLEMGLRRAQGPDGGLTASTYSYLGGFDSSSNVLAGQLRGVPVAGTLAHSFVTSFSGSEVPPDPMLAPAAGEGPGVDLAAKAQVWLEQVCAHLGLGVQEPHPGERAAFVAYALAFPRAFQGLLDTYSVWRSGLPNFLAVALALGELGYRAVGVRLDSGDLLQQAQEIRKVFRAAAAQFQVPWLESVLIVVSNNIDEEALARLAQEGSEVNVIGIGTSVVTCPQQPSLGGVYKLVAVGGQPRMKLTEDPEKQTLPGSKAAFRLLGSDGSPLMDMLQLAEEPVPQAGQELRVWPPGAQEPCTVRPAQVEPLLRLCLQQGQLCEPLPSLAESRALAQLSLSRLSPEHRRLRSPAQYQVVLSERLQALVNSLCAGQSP
Assay: Continuous coupled fluorometric NADH assay of NAPRT activity
Details: 0.5 mM compound; 0.1 mM NA, 0.4 mM PRPP; NADH assay

Compound | Result comparator | inhibition at 500 µM (%)
O=C(O)c1cncnc1 | ≤ | 20
O=C(O)c1cccnn1 | = | 30
O=C(O)c1cccnc1C(=O)O | = | 9
Oc1ncccn1 [Compound 32, 2-hydroxypyrimidine] | = | 0
O=C(O)c1cccnc1F | = | 57
NC1CCC(C(=O)O)CC1 (centres unmarked) | = | 0
Cc1cnc(C(=O)O)c[n+]1[O-] | = | 0
Nc1ncccc1C(=O)O | = | 38
O=C(O)Cc1cnccn1 | = | 0
O=C(O)c1ccccn1 | = | 6
CC(=O)Oc1ccccc1C(=O)O | = | 11
O=C(O)c1ccncc1 | = | 0
NC(=O)c1cnccn1 [Compound 12, pyrazinamide] | = | 0
O=C(O)c1ncccn1 | ≤ | 20
O=C(O)c1ccccc1O | = | 58
c1cnc(N2CCNCC2)nc1 | = | 0
CC(=O)Nc1ccccc1 [Compound 37, acetanilide] | = | 0
